Sourced from patent US20250114463A1

As shown below, each of these binders has a reported in vitro Activity Compared to Native Peptide (%), vs GIP value.
# study system: T1, human GIP receptor (human, UniProt P48546 22-466)
# T1 sequence (looked up): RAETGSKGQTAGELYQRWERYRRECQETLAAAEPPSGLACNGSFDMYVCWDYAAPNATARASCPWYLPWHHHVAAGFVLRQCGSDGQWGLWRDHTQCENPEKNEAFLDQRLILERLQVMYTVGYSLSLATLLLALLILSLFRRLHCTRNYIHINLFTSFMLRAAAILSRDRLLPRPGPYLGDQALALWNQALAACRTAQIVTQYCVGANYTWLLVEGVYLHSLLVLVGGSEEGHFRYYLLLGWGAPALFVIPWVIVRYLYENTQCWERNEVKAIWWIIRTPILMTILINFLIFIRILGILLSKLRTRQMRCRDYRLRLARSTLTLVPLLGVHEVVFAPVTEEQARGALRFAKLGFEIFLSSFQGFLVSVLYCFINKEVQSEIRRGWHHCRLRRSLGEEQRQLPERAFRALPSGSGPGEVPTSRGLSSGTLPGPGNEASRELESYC
# experimental protocol: cell-based or functional assay
Bridges are numbered along the chain shown (N, C = ends). Where no end group is shown, it is not given here. [ ]: non-standard residue; d: D form. Aib = CC(C)(N)C(=O)O
Give the quantity in %, number only.

Use the examples below as a reference point.
binder="H[Aib]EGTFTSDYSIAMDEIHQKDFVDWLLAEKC (bridge 16-20; not fully specified (C-terminus)) [triple agonist of SEQ ID NO: 80]" quantity_unit=% readout_number=0.1
binder="H[Aib]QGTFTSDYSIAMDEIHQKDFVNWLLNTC (bridge 16-20; not fully specified (C-terminus)) [triple agonist of SEQ ID NO: 57]" quantity_unit=% readout_number=0.3

Next, consider the following binder.
// Input: H[Aib]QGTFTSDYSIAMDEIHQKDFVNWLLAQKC (bridge 16-20; not fully specified (C-terminus)) [triple agonist of SEQ ID NO: 33] . Output its in vitro Activity Compared to Native Peptide (%), vs GIP only.
10.4
